- Study system: Serine/threonine-protein kinase SIK1 (Homo sapiens) (UniProt P57059);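 also: mean inhibition value from the GSK PKIS profiling set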
- Sequence (P57059 whole entry): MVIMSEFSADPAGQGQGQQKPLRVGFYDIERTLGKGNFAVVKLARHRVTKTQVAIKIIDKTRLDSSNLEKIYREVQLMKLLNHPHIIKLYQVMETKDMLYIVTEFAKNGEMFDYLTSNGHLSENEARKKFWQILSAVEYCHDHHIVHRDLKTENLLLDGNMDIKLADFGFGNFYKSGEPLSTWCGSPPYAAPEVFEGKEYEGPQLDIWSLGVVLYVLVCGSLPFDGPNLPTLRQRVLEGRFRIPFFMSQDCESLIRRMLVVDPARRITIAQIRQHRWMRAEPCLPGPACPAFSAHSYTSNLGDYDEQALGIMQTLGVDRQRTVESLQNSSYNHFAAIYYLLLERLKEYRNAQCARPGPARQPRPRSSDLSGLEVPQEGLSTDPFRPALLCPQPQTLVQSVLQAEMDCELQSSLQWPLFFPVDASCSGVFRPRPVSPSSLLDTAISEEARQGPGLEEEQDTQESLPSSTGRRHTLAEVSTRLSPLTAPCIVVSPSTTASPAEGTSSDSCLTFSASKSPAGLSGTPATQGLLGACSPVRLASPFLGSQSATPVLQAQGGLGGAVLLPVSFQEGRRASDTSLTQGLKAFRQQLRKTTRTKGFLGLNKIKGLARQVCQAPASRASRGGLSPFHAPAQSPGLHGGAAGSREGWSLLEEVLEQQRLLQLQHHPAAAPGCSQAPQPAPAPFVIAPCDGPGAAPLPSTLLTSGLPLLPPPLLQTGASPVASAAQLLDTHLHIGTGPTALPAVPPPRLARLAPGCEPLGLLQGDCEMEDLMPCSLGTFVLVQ
- Applied conditions: at 1 µM
The entries below are paired with their reported inhibition.
Readout kind: inhibition (%)

[[record]]
chemical_smiles = "c1ccc(-c2n[nH]cc2-c2ccnc(-c3ccc(OCCN4CCOCC4)cc3)c2)nc1"
readout_kind = "inhibition"
number = -2.45

[[record]]
chemical_smiles = "NC(=O)c1cc(-c2ccc(F)cc2)cc(-c2ccncc2)c1N"
readout_kind = "inhibition"
number = 9.72

[[record]]
chemical_smiles = "COc1cc(Nc2ncc3c(C)nc(-c4cccc(Oc5ccccc5)c4)n3n2)cc(OC)c1OC"
readout_kind = "inhibition"
number = 10.1

[[record]]
chemical_smiles = "NC(=O)c1cc(-c2ccncc2)cc(-c2ccccc2)c1N"
readout_kind = "inhibition"
number = 24

[[record]]
chemical_smiles = "CCc1cccc(CC)c1/C=C/c1cncc(C(=O)NC)c1"
readout_kind = "inhibition"
number = 6.26

[[record]]
chemical_smiles = "COc1ccc2cc(-c3c(-c4ccncc4)nc(-c4ccc(S(C)(=O)=O)cc4C)n3C)ccc2c1"
readout_kind = "inhibition"
number = 9.27

[[record]]
chemical_smiles = "COc1ccc(C2=C(N3CCc4ccccc43)C(=O)NC2=O)cc1"
readout_kind = "inhibition"
number = 8.47

[[record]]
chemical_smiles = "COc1cc2ncn(-c3cc(OCCc4ccccc4)c(C(N)=O)s3)c2cc1OC"
readout_kind = "inhibition"
number = 9.48

[[record]]
chemical_smiles = "Cc1ccc(NC(=O)c2ccoc2)cc1-c1ccc(C(=O)NCC2CC2)cc1"
readout_kind = "inhibition"
number = 0.11

[[record]]
chemical_smiles = "O=C1Nc2ccc(I)cc2C1=Cc1cc(Br)c(O)c(Br)c1"
readout_kind = "inhibition"
number = 9.38

[[record]]
chemical_smiles = "O=C(NCC1CC1)c1ccc(-c2cccc(C(=O)NC3CC3)c2)cc1"
readout_kind = "inhibition"
number = 4.41

[[record]]
chemical_smiles = "CN1CCN(CCCNc2nc3ccc(Oc4ccc(NC(=O)Nc5cc(C(F)(F)F)ccc5F)cc4)cc3[nH]2)CC1"
readout_kind = "inhibition"
number = 3.99

[[record]]
chemical_smiles = "N#Cc1ccc(Oc2nccc(-c3c(-c4ccc(F)cc4)ncn3C3CCNCC3)n2)cc1"
readout_kind = "inhibition"
number = 7.69

[[record]]
chemical_smiles = "CS(=O)(=O)CCNCc1ccc(-c2ccc3ncnc(Nc4ccc(OCc5ccccc5)c(Br)c4)c3c2)o1"
readout_kind = "inhibition"
number = 8.17

[[record]]
chemical_smiles = "Cc1ccc(C(=O)NC(C)C)cc1-c1ccc(C(=O)NCC2CC2)cc1"
readout_kind = "inhibition"
number = -1.49

[[record]]
chemical_smiles = "Fc1ccc(-c2ncn(C3CCNCC3)c2-c2ccnc(Oc3ccc(F)c(F)c3)n2)cc1"
readout_kind = "inhibition"
number = 7.15

